Origin of measurements: patent US10064843B2

Target: CypA (Homo sapiens)
Construct: GST (N, cleaved yes); made in house; host or cells: E. coli (pGEX-KG)
Sequence (P62937 whole entry): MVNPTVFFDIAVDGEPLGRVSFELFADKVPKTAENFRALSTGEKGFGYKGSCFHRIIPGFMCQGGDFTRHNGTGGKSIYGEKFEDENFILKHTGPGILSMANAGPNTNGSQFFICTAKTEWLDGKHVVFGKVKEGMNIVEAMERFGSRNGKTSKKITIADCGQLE
Experiment: PPIase activity of CypA, coupled chymotrypsin analysis
Type: biochemical
Details: FIG. 7a; read-out: IC50 PPIase activity of CypA
Experimental: Example 5: Analysis of Peptidyl-Prolyl Cis-Trans Isomerase Activity The PPIase activity of CypA was determined according to a known method using the coupled chymotrypsin analysis. The cis-trans isomerization was measured by absorbance at 390 nm in a spectrophotometer. Additionally, the remaining percentage of enzyme activity was measured at different concentrations of the inhibitor to calculate the 50% inhibition concentration (IC50) to the PPIase activity. […]
readout: IC50 (nM)
Entry rule: numbers only, all in nM.

Example molecules with recorded IC50:
Please tell me: IC50 of COc1cc(C(C(=O)NC2CCCCC2)N(C(=O)Cc2c[nH]c3ccccc23)c2ccc(C(C)C)cc2)cc(OC)c1OC (stereo not drawn) , system CypA (Homo sapiens)?
3.6

Give IC50 (CypA (Homo sapiens)) of the following molecule: COc1ccc(CCC(=O)N(c2ccc(Br)cc2)C(C(=O)NC2CCCCC2)c2ccc([N+](=O)[O-])cc2)cc1 (stereo not drawn)
11.2

Next molecule, please.
API: value(readout=IC50, system=CypA (Homo sapiens)) for record Cc1ccc(C)c(C(=O)N(c2ccc(C(C)C)cc2)C(C(=O)NC2CCCCC2)c2ccc(Cl)cc2)c1 (stereo not drawn)
10.6
